assay: protein stability index of a GFP-peptide fusion (yeast GPS) (PSI 1-4); higher = more stable; sorted into four equal gates, so the index is relative within each strain; details: doa10∆
observed property: protein stability index
Respond using a number only.

[
  {
    "monomer sequence": "IESFVELGVSIYDFPGT [NUT2]",
    "experimental result": 2.83
  },
  {
    "monomer sequence": "SLEQRTLNPDLFLYKEL [RPC82]",
    "experimental result": 3.28
  },
  {
    "monomer sequence": "VTSEKYPFDKLESWWLV [BRR2]",
    "experimental result": 2.42
  }
]

Q: If you can, please state the reported protein stability index value of ANLRVLNSYWVNQDSTY [RPL15A] .
Result: 2.62

Q: So what's the measured protein stability index for this one? VAEKMNGCSGADVKGVC [RPT6]
Result: 3.41

Q: May I ask what protein stability index has been recorded for TVTNSKFRSSILRKSFD [RPN2] ?
Result: 2.88

Q: I am curious: what protein stability index value has been reported for LEKGEIELSDGSTFKVN [YJL039C/NUP192] ?
Result: 3.02

Q: Would you mind telling me what protein stability index value was observed for EIEELKSSIQNLNELES [SMC3] ?
Result: 1.66

Q: Tell me the measured protein stability index of LKDIVGQTSRTVTPAPN [ITC1] , please.
Result: 2.97

Q: So what's the measured protein stability index for this one? LLKSNDPLLSLYNFLHK [RGR1]
Result: 2.31

Q: Sample DSKGSLYSVKFAPAHLG [YGL100W/SEH1] — what was its protein stability index?
Result: 2.66

Q: Given the entry RLANLIDYKLRVLTQDG [SMB1] , report its measured protein stability index.
Result: 2.65

Q: Look up protein stability index: QHDSSANEDEEEQLDAL [CSN12]
Result: 3.55

Q: // protein stability index lookup, key: QFTKVIDEPIKSIMDGI [FAS1]
Result: 1.86

Q: Can you look up the measured protein stability index of LLYYIPSLELSAEYLQM [YJR042W/NUP85] for me?
Result: 1.12

Q: protein stability index for EDNYNPKMQWSLQDNSA [RPN4] ?
Result: 3.21

Q: Fill in the blank: the reported protein stability index of PRQRMEEVVSNDEGVWD [PRP8] is ____.
Result: 3.45

Q: # query: protein stability index of entry NLHALSMSLQSKNLGEI [SWI1]
Result: 2.57

Q: If you can, please state the reported protein stability index value of LTNEISDLKGKLSSAEN [YIL149C/MLP2] .
Result: 3.38

Q: Look at this sequence and give its reported protein stability index. ADSAVNRQTLMFTATMT [PRP28]
Result: 2.6

Q: What protein stability index value was documented for this sequence, KFMTNSTAFVPTIEYVQ [ARP9] ?
Result: 2.22

Q: So what does the record say about protein stability index for SAAGMTAAIDSVVSQIE [FAS1] ?
Result: 3.49

###

assay: protein stability index of a GFP-peptide fusion (yeast GPS) (PSI 1-4); higher = more stable; sorted into four equal gates, so the index is relative within each strain; settings: ubr1∆
observed property: protein stability index

Here's what some known entries look like.
[
  {
    "monomer sequence": "NVTGGKAANFIQNQSPQ [SWI1]",
    "experimental result": 2.99
  },
  {
    "monomer sequence": "DGHLRAPLKHGVGILYK [BRR2]",
    "experimental result": 1.26
  },
  {
    "monomer sequence": "SVPLMINAKNIAFASNY [RRP43]",
    "experimental result": 1.41
  },
  {
    "monomer sequence": "YLEESFTNLGIIVQYLT [RGR1]",
    "experimental result": 2.8
  },
  {
    "monomer sequence": "ATDVEARAVQDNGESAF [RPL13A]",
    "experimental result": 2.85
  }
]

Q: Find the recorded protein stability index belonging to ASIGQAAEQQSKAFKES [SRP54] and report it.
Result: 3.16
